# System: UMC-11
# Assay details: relative viability (nuclei count vs DMSO), 5 days (fraction); higher = more cells survive
# Measurement setup: first compound 0.04 µM
So I've got a bunch of compounds here, and I need their relative viability values.
Just the number.

Query string: Look up relative viability: Clc1ccc(Nc2nnc(Cc3ccncc3)c3ccccc23)cc1 [Vatalanib] + Nc1ncn([C@H]2C[C@H](O)[C@@H](CO)O2)c(=O)n1 [Decitabine] (partner 2 µM)
Result string: 1.08

Query string: Look up relative viability: C[C@@H]1CN(CC(=O)Nc2ccc3c(c2)Cc2cccc(-c4cc(=O)cc(N5CCOCC5)o4)c2S3)C[C@H](C)O1 + Cc1nc(NC(=O)N2CCC[C@H]2C(N)=O)sc1-c1ccnc(C(C)(C)C(F)(F)F)c1 [Alpelisib] (partner 2 µM)
Result string: 1.1

Query string: Look up relative viability: C[C@@H]1CN(CC(=O)Nc2ccc3c(c2)Cc2cccc(-c4cc(=O)cc(N5CCOCC5)o4)c2S3)C[C@H](C)O1 + C[C@]1(O)C[C@@H](c2nc(-c3ccc4ccc(-c5ccccc5)nc4c3)c3c(N)nccn32)C1 [Linsitinib] (partner 1 µM)
Result string: 0.997

Provenance of the data: the supplement of paper PMC10307832
